target: Isoleucine--tRNA ligase (Escherichia coli K-12, UniProt P00956)
Sequence (P00956 whole entry): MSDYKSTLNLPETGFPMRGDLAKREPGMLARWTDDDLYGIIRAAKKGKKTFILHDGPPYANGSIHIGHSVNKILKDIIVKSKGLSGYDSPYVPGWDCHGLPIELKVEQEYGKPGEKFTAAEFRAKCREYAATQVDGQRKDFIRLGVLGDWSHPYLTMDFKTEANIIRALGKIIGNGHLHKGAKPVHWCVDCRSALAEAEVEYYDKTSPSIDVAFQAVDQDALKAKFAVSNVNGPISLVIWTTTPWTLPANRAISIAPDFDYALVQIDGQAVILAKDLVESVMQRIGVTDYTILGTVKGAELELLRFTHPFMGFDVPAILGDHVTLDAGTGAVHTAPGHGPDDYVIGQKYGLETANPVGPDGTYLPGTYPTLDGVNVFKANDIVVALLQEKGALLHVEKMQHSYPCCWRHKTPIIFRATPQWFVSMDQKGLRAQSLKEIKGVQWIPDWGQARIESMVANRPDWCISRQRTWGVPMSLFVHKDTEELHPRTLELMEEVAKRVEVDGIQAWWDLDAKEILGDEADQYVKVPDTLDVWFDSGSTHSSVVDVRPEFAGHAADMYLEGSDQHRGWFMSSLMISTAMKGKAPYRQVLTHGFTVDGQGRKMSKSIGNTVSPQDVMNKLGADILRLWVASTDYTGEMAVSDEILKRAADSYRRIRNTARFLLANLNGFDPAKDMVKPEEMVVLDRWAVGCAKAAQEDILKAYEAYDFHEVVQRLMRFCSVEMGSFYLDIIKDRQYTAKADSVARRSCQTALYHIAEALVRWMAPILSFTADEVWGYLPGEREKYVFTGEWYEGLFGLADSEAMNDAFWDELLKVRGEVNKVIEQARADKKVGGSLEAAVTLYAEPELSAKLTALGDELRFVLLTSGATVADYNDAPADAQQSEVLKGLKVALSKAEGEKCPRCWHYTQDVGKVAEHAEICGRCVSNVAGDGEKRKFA
MEASURED QUANTITY: pIC50
// returns pIC50 (minus log10 of molar concentration), number only

COMPOUND	MEASURED QUANTITY	VALUE
C/C(=C\C(=O)c1ccccc1)C[C@@H]1OCC(C[C@@H]2O[C@H]2[C@@H](C)[C@H](C)O)[C@@H](O)[C@H]1O (stereo partly drawn)	pIC50	6.31

Observed pIC50, Isoleucine--tRNA ligase (Escherichia coli K-12, UniProt P00956), COC(=O)CCCCCCCCOC(=O)/C=C(\C)C[C@@H]1OCC(C[C@@H]2O[C@H]2[C@@H](C)[C@H](C)O)[C@@H](O)[C@H]1O (stereo partly drawn) : 5.93

Values were extracted from ChEMBL document CHEMBL1124316.
